- target-of-assay: NAMPT (human, recombinant, C-terminally His-tagged) (Homo sapiens, UniProt P43490)
- Sequence (P43490 whole entry): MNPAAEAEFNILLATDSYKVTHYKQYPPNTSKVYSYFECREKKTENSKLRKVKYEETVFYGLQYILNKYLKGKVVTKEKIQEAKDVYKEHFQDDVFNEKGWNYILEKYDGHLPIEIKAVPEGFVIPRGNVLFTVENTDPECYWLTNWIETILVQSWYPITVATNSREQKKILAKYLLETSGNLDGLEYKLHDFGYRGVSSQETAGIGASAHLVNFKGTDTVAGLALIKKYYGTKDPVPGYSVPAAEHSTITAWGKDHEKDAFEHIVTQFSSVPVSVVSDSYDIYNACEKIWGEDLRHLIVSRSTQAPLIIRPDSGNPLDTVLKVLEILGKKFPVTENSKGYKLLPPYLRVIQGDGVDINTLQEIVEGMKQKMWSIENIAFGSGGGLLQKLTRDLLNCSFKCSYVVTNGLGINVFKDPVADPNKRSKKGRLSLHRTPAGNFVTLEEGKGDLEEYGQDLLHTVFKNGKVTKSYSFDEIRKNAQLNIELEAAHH
- assay-procedure: Time-Resolved Fluorescence Resonance Energy Transfer (TR-FRET) Binding Assay of NAMPT
- condition-description: 6.8 nM NAMPT, 200 nM probe, equilibrated 3 hours, absence of substrates
List of IC50 values.
Enter the number, and then the unit.

These recorded examples may help you get a feel for the data.
Cc1ncccc1N1CC(C(=O)Nc2ccc(C3CCN(C(=O)c4cccs4)CC3)cc2)C1 [Example 187] ... 10.2 nM
Cc1ncccc1N1CC(C(=O)Nc2ccc(C3CCN(C(=O)C4CCCCC4)CC3)cc2)C1 [Example 196] ... 83.8 nM
COc1ccc(C(=O)N2CCC(c3ccc(NC(=O)C4CN(c5cccnn5)C4)cc3)CC2)cc1 [Example 347] ... 66.2 nM
O=C(Nc1ccc(C2CCN(C(=O)CC3CCOCC3)CC2)cc1)C1CN(c2ccnnc2)C1 [Example 145] ... 40.6 nM
O=C(Nc1ccc(OC2CCN(C(=O)C(F)(F)c3ccccc3)CC2)cc1)C1CN(c2ccnnc2)C1 [Example 269] ... 37.7 nM
CCC(C)(C)C(=O)N1CCC(c2ccc(NC(=O)C3CN(c4cccnc4)C3)cc2)CC1 [Example 133] ... 12 nM
CC(C)(C)C(=O)N1CCC(Oc2ccc(NC(=O)C3CN(c4ccnnc4)C3)cc2)CC1 [Example 280] ... 123 nM
CC(C)(O)C(=O)N1CCC(c2ccc(NC(=O)C3CN(c4cnccc4C#N)C3)cc2)CC1 [Example 97] ... 36.6 nM
CC(C)CC(=O)N1CCC(Oc2ccc(NC(=O)C3CN(c4ccnnc4)C3)cc2)CC1 [Example 266] ... 120 nM
O=C(Nc1ccc(OC2CCN(CC3CCOC3)CC2)cc1)C1CN(c2cccnc2)C1 (stereo not shown) [Example 83] ... 1210 nM

What value of IC50 on NAMPT (human, recombinant, C-terminally His-tagged) (Homo sapiens, UniProt P43490) does Cc1ncccc1N1CC(C(=O)Nc2ccc(C3CCN(C(=O)CCN4CCCCC4)CC3)cc2)C1 [Example 190] have? 1910 nM

What value of IC50 on NAMPT (human, recombinant, C-terminally His-tagged) (Homo sapiens, UniProt P43490) does CC(C)(O)C(=O)N1CCC(c2ccc(NC(=O)C3CN(c4ccnnc4)C3)cc2)CC1 [Example 85] have? 32.2 nM

What value of IC50 on NAMPT (human, recombinant, C-terminally His-tagged) (Homo sapiens, UniProt P43490) does CC[C@H](C)C(=O)N1CC(Oc2ccc(NC(=O)C3CN(c4ccnnc4)C3)cc2)C1 [Example 265] have? 29.5 nM

What value of IC50 on NAMPT (human, recombinant, C-terminally His-tagged) (Homo sapiens, UniProt P43490) does O=C(Nc1ccc(C2CCN(C(=O)c3cccc(OC(F)(F)F)c3)CC2)cc1)C1CN(c2cccnn2)C1 [Example 356] have? 67.7 nM

What value of IC50 on NAMPT (human, recombinant, C-terminally His-tagged) (Homo sapiens, UniProt P43490) does O=C(Nc1ccc(C2CCN(C(=O)c3cccs3)CC2)cc1)C1CN(c2cccnc2)C1 [Example 127] have? 3.64 nM

What value of IC50 on NAMPT (human, recombinant, C-terminally His-tagged) (Homo sapiens, UniProt P43490) does O=C(Nc1ccc(OC2CCN(C(=O)c3ccc(C(F)(F)F)cc3)CC2)cc1)C1CN(c2ccnnc2)C1 [Example 287] have? 125 nM
